Tested on: K-562 leukemia
Experiment: NCI-60 one-dose screen, 48 h
Details: 10 µM unless noted
This is part of a sample that, as a whole, favours compounds with a hit. Of some 83,000 tested, about 20% had one in any assay. Calls of active or inactive are those of the source. The calls were made as follows: active = growth percent below 10; inactive = the rest.
I would appreciate it if you answered using one of these outcomes: TRUE (active), FALSE (inactive)

>  <compound>
CC(C)C(C(=O)NCCN1CCOCC1)N1C(=O)/C(=C/c2ccc(Br)cc2)SC1=S (stereo not given)

>  <measurementTarget>
K-562 leukemia

>  <labelValue>
FALSE

$$$$
>  <compound>
COc1cc(Nc2nc(N[C@H]3CCCC[C@@H]3N)nc3cc[nH]c(=O)c23)cc(OC)c1

>  <measurementTarget>
K-562 leukemia

>  <labelValue>
FALSE

$$$$
>  <compound>
COc1ccc(OC)c(/C=C2\Oc3cc(OCCCN4CCCC4)ccc3C2=O)c1

>  <measurementTarget>
K-562 leukemia

>  <labelValue>
TRUE

$$$$
>  <compound>
Nc1ccc(C(=O)CSc2nc3ccccc3[nH]2)cc1

>  <measurementTarget>
K-562 leukemia

>  <labelValue>
FALSE

$$$$

Name the outcome recorded for C=C1CCC[C@]2(C)CCC[C@H](C)[C@@H](OC(C)=O)[C@@H]3OC(=O)C(=C)[C@@H]3C[C@H]1O2 in the assay.
FALSE

The reported numbers originate from PubChem BioAssay (NCI).
